Tested on: UO-31
Assay: Growth inhibition of human UO31 cells at 10 uM after 48 hrs by SRB assay
Type: functional
Settings: UO-31, 48 h, read-out: GI

{"compound": "O=c1[nH]cc(F)c(=O)[nH]1 [FLUOROURACIL]", "inhibition of growth at 10 µM / %": 41.3}
{"compound": "O=c1c2cccc3c(NCCO)ccc(c32)c2nc3ccccc3n12", "inhibition of growth at 10 µM / %": 38.3}
{"compound": "O=c1c2cccc3c(Nc4c(F)cccc4F)ccc(c32)c2nc3ccccc3n12", "inhibition of growth at 10 µM / %": 49.4}
{"compound": "O=c1c2cccc3c(Nc4ccc(Br)cn4)ccc(c32)c2nc3ccccc3n12", "inhibition of growth at 10 µM / %": 47.9}
{"compound": "Nc1ccc(Sc2ccc3c4c2cccc4c(=O)n2c4ccccc4nc32)cc1", "inhibition of growth at 10 µM / %": 90.7}
{"compound": "O=c1c2cccc3c(N4CCCC4)ccc(c32)c2nc3ccccc3n12", "inhibition of growth at 10 µM / %": 43.8}
{"compound": "O=c1c2cccc3c(N4CCOCC4)ccc(c32)c2nc3ccccc3n12", "inhibition of growth at 10 µM / %": 34.1}
{"compound": "O=c1c2cccc3c(Nc4ccccn4)ccc(c32)c2nc3ccccc3n12", "inhibition of growth at 10 µM / %": 53.5}
{"compound": "CCCCNc1ccc2c3c1cccc3c(=O)n1c3ccccc3nc21", "inhibition of growth at 10 µM / %": 41.4}
{"compound": "O=c1c2cccc3c(NC4CCCCC4)ccc(c32)c2nc3ccccc3n12", "inhibition of growth at 10 µM / %": 58.6}
{"compound": "O=c1c2cccc3c(Nc4ccc(F)cc4)ccc(c32)c2nc3ccccc3n12", "inhibition of growth at 10 µM / %": 50.8}

###

# inhibition of growth at 10 µM values compiled below
Tested on: SF-295
Test: Growth inhibition of human SF295 cells at 10 uM after 48 hrs by SRB assay
Format: functional
Details: SF-295, 48 h, read-out: GI

{"cpd-smiles": "O=c1c2cccc3c(NCCO)ccc(c32)c2nc3ccccc3n12", "readout-units": "%", "op": "<", "inhibition of growth at 10 µM": 20}
{"cpd-smiles": "O=c1c2cccc3c(Nc4ccc(Br)cn4)ccc(c32)c2nc3ccccc3n12", "readout-units": "%", "op": "<", "inhibition of growth at 10 µM": 20}
{"cpd-smiles": "O=c1c2cccc3c(N4CCOCC4)ccc(c32)c2nc3ccccc3n12", "readout-units": "%", "op": "<", "inhibition of growth at 10 µM": 20}
{"cpd-smiles": "O=c1c2cccc3c(N4CCCC4)ccc(c32)c2nc3ccccc3n12", "readout-units": "%", "op": "=", "inhibition of growth at 10 µM": 40.2}
{"cpd-smiles": "Nc1ccc(Sc2ccc3c4c2cccc4c(=O)n2c4ccccc4nc32)cc1", "readout-units": "%", "op": "=", "inhibition of growth at 10 µM": 88}
{"cpd-smiles": "O=c1c2cccc3c(Nc4ccc(F)cc4)ccc(c32)c2nc3ccccc3n12", "readout-units": "%", "op": "<", "inhibition of growth at 10 µM": 20}
{"cpd-smiles": "O=c1[nH]cc(F)c(=O)[nH]1", "readout-units": "%", "op": "=", "inhibition of growth at 10 µM": 69.1}

###

Tested on: NCI-H226
Test: Growth inhibition of human NCI-H226 cells at 10 uM after 48 hrs by SRB assay
Assay type: functional
Details: NCI-H226, 48 h, read-out: GI

{"cpd-smiles": "O=c1c2cccc3c(Nc4ccc(F)cc4)ccc(c32)c2nc3ccccc3n12", "tgt": "NCI-H226", "readout-units": "%", "op": "<", "inhibition of growth at 10 µM": 20}
{"cpd-smiles": "O=c1[nH]cc(F)c(=O)[nH]1", "tgt": "NCI-H226", "readout-units": "%", "op": "=", "inhibition of growth at 10 µM": 69.5}
{"cpd-smiles": "O=c1c2cccc3c(NC4CCCCC4)ccc(c32)c2nc3ccccc3n12", "tgt": "NCI-H226", "readout-units": "%", "op": "=", "inhibition of growth at 10 µM": 28}
{"cpd-smiles": "O=c1c2cccc3c(N4CCCC4)ccc(c32)c2nc3ccccc3n12", "tgt": "NCI-H226", "readout-units": "%", "op": "=", "inhibition of growth at 10 µM": 44.7}
{"cpd-smiles": "O=c1c2cccc3c(Nc4ccccn4)ccc(c32)c2nc3ccccc3n12", "tgt": "NCI-H226", "readout-units": "%", "op": "=", "inhibition of growth at 10 µM": 30.4}
{"cpd-smiles": "O=c1c2cccc3c(Nc4ccc(Br)cn4)ccc(c32)c2nc3ccccc3n12", "tgt": "NCI-H226", "readout-units": "%", "op": "<", "inhibition of growth at 10 µM": 20}
{"cpd-smiles": "O=c1c2cccc3c(N4CCOCC4)ccc(c32)c2nc3ccccc3n12", "tgt": "NCI-H226", "readout-units": "%", "op": "<", "inhibition of growth at 10 µM": 20}
{"cpd-smiles": "O=c1c2cccc3c(Nc4c(F)cccc4F)ccc(c32)c2nc3ccccc3n12", "tgt": "NCI-H226", "readout-units": "%", "op": "=", "inhibition of growth at 10 µM": 24.9}
{"cpd-smiles": "O=c1c2cccc3c(NCCO)ccc(c32)c2nc3ccccc3n12", "tgt": "NCI-H226", "readout-units": "%", "op": "<", "inhibition of growth at 10 µM": 20}
{"cpd-smiles": "CCCCNc1ccc2c3c1cccc3c(=O)n1c3ccccc3nc21", "tgt": "NCI-H226", "readout-units": "%", "op": "=", "inhibition of growth at 10 µM": 26.3}
{"cpd-smiles": "Nc1ccc(Sc2ccc3c4c2cccc4c(=O)n2c4ccccc4nc32)cc1", "tgt": "NCI-H226", "readout-units": "%", "op": "=", "inhibition of growth at 10 µM": 59.4}

###

Test system: 786-0
Assay: Growth inhibition of human 786-0 cells at 10 uM after 48 hrs by SRB assay
Assay type: functional
Conditions: 786-0, 48 h, read-out: GI
# inhibition of growth at 10 µM values compiled below
readout: inhibition of growth at 10 µM

{"compound": "O=c1c2cccc3c(N4CCOCC4)ccc(c32)c2nc3ccccc3n12", "readout": "inhibition of growth at 10 µM", "reported-result": "< 20%"}
{"compound": "Nc1ccc(Sc2ccc3c4c2cccc4c(=O)n2c4ccccc4nc32)cc1", "readout": "inhibition of growth at 10 µM", "reported-result": "62.7%"}
{"compound": "O=c1c2cccc3c(NCCO)ccc(c32)c2nc3ccccc3n12", "readout": "inhibition of growth at 10 µM", "reported-result": "< 20%"}
{"compound": "O=c1c2cccc3c(Nc4ccc(F)cc4)ccc(c32)c2nc3ccccc3n12", "readout": "inhibition of growth at 10 µM", "reported-result": "< 20%"}
{"compound": "O=c1c2cccc3c(Nc4ccccn4)ccc(c32)c2nc3ccccc3n12", "readout": "inhibition of growth at 10 µM", "reported-result": "< 20%"}
{"compound": "O=c1c2cccc3c(N4CCCC4)ccc(c32)c2nc3ccccc3n12", "readout": "inhibition of growth at 10 µM", "reported-result": "< 20%"}
{"compound": "O=c1[nH]cc(F)c(=O)[nH]1 [FLUOROURACIL]", "readout": "inhibition of growth at 10 µM", "reported-result": "48.7%"}
{"compound": "O=c1c2cccc3c(Nc4ccc(Br)cn4)ccc(c32)c2nc3ccccc3n12", "readout": "inhibition of growth at 10 µM", "reported-result": "< 20%"}
{"compound": "O=c1c2cccc3c(NC4CCCCC4)ccc(c32)c2nc3ccccc3n12", "readout": "inhibition of growth at 10 µM", "reported-result": "< 20%"}
{"compound": "O=c1c2cccc3c(Nc4c(F)cccc4F)ccc(c32)c2nc3ccccc3n12", "readout": "inhibition of growth at 10 µM", "reported-result": "< 20%"}
{"compound": "CCCCNc1ccc2c3c1cccc3c(=O)n1c3ccccc3nc21", "readout": "inhibition of growth at 10 µM", "reported-result": "< 20%"}

###

Test system: UACC-62
Experiment: Growth inhibition of human UACC62 cells at 10 uM after 48 hrs by SRB assay
Assay type: functional
Details: UACC-62, 48 h, read-out: GI

{"molecule": "CCCCNc1ccc2c3c1cccc3c(=O)n1c3ccccc3nc21", "readout-units": "%", "op": "<", "inhibition of growth at 10 µM": 20}
{"molecule": "O=c1c2cccc3c(Nc4ccc(F)cc4)ccc(c32)c2nc3ccccc3n12", "readout-units": "%", "op": "=", "inhibition of growth at 10 µM": 32.2}
{"molecule": "O=c1c2cccc3c(Nc4ccccn4)ccc(c32)c2nc3ccccc3n12", "readout-units": "%", "op": "=", "inhibition of growth at 10 µM": 35.7}
{"molecule": "O=c1c2cccc3c(N4CCOCC4)ccc(c32)c2nc3ccccc3n12", "readout-units": "%", "op": "=", "inhibition of growth at 10 µM": 37.9}
{"molecule": "O=c1[nH]cc(F)c(=O)[nH]1 [FLUOROURACIL]", "readout-units": "%", "op": "=", "inhibition of growth at 10 µM": 39.7}
{"molecule": "Nc1ccc(Sc2ccc3c4c2cccc4c(=O)n2c4ccccc4nc32)cc1", "readout-units": "%", "op": "=", "inhibition of growth at 10 µM": 68.1}
{"molecule": "O=c1c2cccc3c(N4CCCC4)ccc(c32)c2nc3ccccc3n12", "readout-units": "%", "op": "=", "inhibition of growth at 10 µM": 37.5}
{"molecule": "O=c1c2cccc3c(Nc4ccc(Br)cn4)ccc(c32)c2nc3ccccc3n12", "readout-units": "%", "op": "<", "inhibition of growth at 10 µM": 20}
{"molecule": "O=c1c2cccc3c(NCCO)ccc(c32)c2nc3ccccc3n12", "readout-units": "%", "op": "=", "inhibition of growth at 10 µM": 23.6}
{"molecule": "O=c1c2cccc3c(NC4CCCCC4)ccc(c32)c2nc3ccccc3n12", "readout-units": "%", "op": "<", "inhibition of growth at 10 µM": 20}
{"molecule": "O=c1c2cccc3c(Nc4c(F)cccc4F)ccc(c32)c2nc3ccccc3n12", "readout-units": "%", "op": "<", "inhibition of growth at 10 µM": 20}
